The reported numbers originate from PubChem BioAssay (NCI).

Catalogue of growth inhibition values
Assay: NCI Yeast Anticancer Drug Screen. Data for the mec2-1 strain (AID 157)
Details: S. cerevisiae mec2-1 strain, at 50.0 µM, stronger effect = higher value
Experimental: Growth inhibition of yeast strains with defined genetic alterations is measured as a screen for potential anti-cancer activity. Selected strains with alterations in DNA damage repair or cell cycle control were exposed to compounds and growth inhibition was measured relative to vehicle treated controls. The strain used in this assay is mec2-1
The panel holds about 79,000 compounds, 15% with a hit somewhere; the sample as a whole holds those more often.
Use % as the unit, but write only the number.

Example entries begin here.
| MOLECULE | growth inhibition [%] |
| --- | --- |
| CN(C)C(=O)c1cccc([N+](=O)[O-])c1 | -3.5 |
| O=C(Nc1cccc2c1C(=O)c1cc(Cl)ccc1C2=O)c1ccccc1 | 0.1 |
| Cc1ccccc1NC(=O)c1ccccc1 | 2.3 |
| CC(=O)Oc1ccccc1/C=C1\N=C(c2ccccc2)OC1=O | 2.25 |
| CC(=O)Nc1ccc2c(c1)Cc1cc(Cl)c(Cl)cc1-2 | -4.05 |

Task: Request the reported growth inhibition associated with COc1cc(CNc2ccc3nc4n(c(=O)c3c2)CCCCC4)cc(OC)c1OC
Result: 13.4

Task: Request the reported growth inhibition associated with [N-]=[N+]=Nc1nc2c(N)ncnc2n1C1OC(CO)C(O)C1O (configuration not stated)
Result: 16.4

Task: Request the reported growth inhibition associated with CCCCCCCCCCCCCCS(=O)(=O)CCCl
Result: -6.1
